Biological target: human TYK2 (JH2domain-pseudokinase) (Homo sapiens (Human), UniProt P29597)
Sequence (P29597 556-888): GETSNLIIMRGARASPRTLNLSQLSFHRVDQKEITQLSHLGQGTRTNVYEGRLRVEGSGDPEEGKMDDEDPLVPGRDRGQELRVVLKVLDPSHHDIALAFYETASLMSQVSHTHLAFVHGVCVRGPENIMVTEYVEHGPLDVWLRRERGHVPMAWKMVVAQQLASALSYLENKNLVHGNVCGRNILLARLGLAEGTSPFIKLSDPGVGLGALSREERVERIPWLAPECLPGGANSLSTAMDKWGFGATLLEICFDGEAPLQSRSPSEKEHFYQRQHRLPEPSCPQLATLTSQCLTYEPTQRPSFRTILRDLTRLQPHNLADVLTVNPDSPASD
Assay: TYK2 JH2 Domain Binding Assay (KINOMEscan)
Details: 11-point 3-fold dilution, top concentration 30,000 nM, duplicate
Experimental: Binding constants for compounds of the present invention against the JH2 domain were determined by the following protocol for a KINOMEscan® assay (DiscoveRx). […] The TYK2(JH2domain-pseudokinase) fusion protein was labeled with a chimeric double-stranded DNA tag containing the NFkB binding site (5′-GGGAATTCCC-3′) fused to an amplicon for qPCR readout, which was added directly to the expression extract (the final concentration of DNA-tag in the binding reaction is 0.1 nM). […]
Reported Kd is given for each of the following compounds.

Past entries and their recorded results:
[[record]]
compound = "CNC(=O)c1cnc(NC(=O)C2CC2)c2[nH]c(-c3ccc(-c4nccn4C)cc3F)cc12 [Compound I-58]"
measured_metric = "Kd"
reported_measurement = "< 0.2 nM"

[[record]]
compound = "CNC(=O)c1cnc(NC(=O)C2CC2)c2[nH]c(-c3cc(-c4ncco4)ccn3)cc12 [Compound I-15]"
measured_metric = "Kd"
reported_measurement = "0.2 to 1 nM"


Fill in the blank: the reported Kd of CNC(=O)c1cnc(NC(=O)C2CC2)c2[nH]c(-c3ccc(-c4cn(C)nn4)cc3OC)cc12 [Compound I-64] is ____. > 10 nM

Fill in the blank: the reported Kd of CNC(=O)c1cnc(NC(=O)C2CC2)c2[nH]c(-c3cc(-c4nccs4)cnc3OC3CC3)cc12 [Compound I-39] is ____. 1 to 10 nM

Fill in the blank: the reported Kd of CNC(=O)c1cnc(NC(=O)C2CC2)c2[nH]c(-c3ccccc3N3CCCS3(=O)=O)cc12 [Compound I-4] is ____. < 0.2 nM

Fill in the blank: the reported Kd of CNC(=O)c1cnc(NC(=O)C2CC2)c2[nH]c(-c3cc(-c4nccs4)ccn3)cc12 [Compound I-14] is ____. 0.2 to 1 nM

Fill in the blank: the reported Kd of CNC(=O)c1cnc(NC(=O)C2CC2)c2[nH]c(-c3ccn(-c4cnn(C)c4)n3)cc12 [Compound I-80] is ____. < 0.2 nM

###

Reported pKd is given for each of the following compounds.
biological target: human TYK2 (JH2domain-pseudokinase) (Homo sapiens (Human), UniProt P29597); experiment: TYK2 JH2 Domain Binding Assay (KINOMEscan); conditions: 11-point 3-fold dilution, top concentration 30,000 nM, duplicate
pKd: −log10 of the molar value.

[[record]]
compound_string = "CNC(=O)c1cnc(NC(=O)C2CC2)c2[nH]c(-c3cccc(-c4cnn(C)c4)c3F)cc12"
reported_measurement = "> 9.70"

[[record]]
compound_string = "CNC(=O)c1cnc(NC(=O)C2CC2)c2[nH]c(-c3cccc(-c4nc(C)n(C)n4)c3)cc12"
reported_measurement = "9.00 to 9.70"

[[record]]
compound_string = "CNC(=O)c1cnc(NC(=O)C2CC2)c2[nH]c(-c3cccc(-c4cn(C)cn4)c3F)cc12"
reported_measurement = "> 9.70"

[[record]]
compound_string = "CNC(=O)c1cnc(NC(=O)C2CC2)c2[nH]c(-c3cccc(-c4cnc(C)cn4)c3)cc12"
reported_measurement = "> 9.70"

[[record]]
compound_string = "[2H]C([2H])([2H])NC(=O)c1cnc(NC(=O)C2CC2)c2[nH]c(-c3ccccc3)cc12"
reported_measurement = "9.00 to 9.70"

[[record]]
compound_string = "CNC(=O)c1cnc(NC(=O)C2CC2)c2[nH]c(-c3cccc(-c4nnn(C)n4)c3OC)cc12"
reported_measurement = "9.00 to 9.70"


Fill in the blank: the reported pKd of CNC(=O)c1cnc(NC(=O)C2CC2)c2[nH]c(-c3cccc(-c4ncn(C)n4)c3F)cc12 is ____. > 9.70

Fill in the blank: the reported pKd of CNC(=O)c1cnc(NC(=O)C2CC2)c2[nH]c(N3CCCCC3)cc12 is ____. < 8.00

Fill in the blank: the reported pKd of CNC(=O)c1cnc(Nc2ccn(C)n2)c2[nH]c(-c3ccccc3)cc12 is ____. 9.00 to 9.70

Fill in the blank: the reported pKd of CNC(=O)c1cnc(NC(=O)C2CC2)c2[nH]c(-c3cccc(-c4nnn(C)n4)c3F)cc12 is ____. > 9.70

Fill in the blank: the reported pKd of CNC(=O)c1cnc(NC(=O)C2CC2)c2[nH]c(-c3ccc(-c4nc(C)c(C)n4C)cc3F)cc12 is ____. > 9.70

Fill in the blank: the reported pKd of CNC(=O)c1cnc(NC(=O)C2CC2)c2[nH]c(-c3cccnc3OC3CC3)cc12 is ____. > 9.70

Fill in the blank: the reported pKd of [2H]C([2H])([2H])NC(=O)c1cnc(NC(=O)C2CC2)c2[nH]c(-c3cccc(-c4ncn(C)n4)n3)cc12 is ____. 9.00 to 9.70

Where do these numbers come from? They come from patent US11053241B2.
